measurement protocol: NCI Yeast Anticancer Drug Screen. Data for the bub3 strain (AID 167)
protocol conditions: S. cerevisiae bub3 mutant strain, at 50.0 µM (retest, dose inferred, filed as 5.0), stronger effect = higher value
Compounds without any hit were thinned out: in the full panel of roughly 79,000, 15% have a hit. The source made the active and inactive calls. Cut-off read from the data, not from the text of the source: active = growth inhibition above about 70%; inactive = the rest.
metric name: growth inhibition

# compound, growth inhibition
rows = [
    ("CC(=O)N/N=C/c1ccc([N+](=O)[O-])o1", "22% (inactive)"),
]

Q: Can you share its growth inhibition? I mean this compound: "CN(C)c1ccc(/C=C/c2nc3ccccc3s2)cc1"
Result: 1% (inactive)

Q: Recorded growth inhibition for COC(=O)c1ccc(C)cc1C1CN=NC12Cc1cc(C)ccc1C2=O (stereo unspecified) , please?
Result: 73% (active)

Q: Entry "Cc1ccc(/C=N\NC(=S)N/N=C/c2ccc(C)cc2)cc1" has what growth inhibition?
Result: 99% (active)

Q: Any idea what growth inhibition was measured for "CC(=O)N=C1N(/C=C2\C(=O)Oc3ccccc3C2=O)C(=O)/C(=C/c2cccc(Cl)c2Cl)N1C" ?
Result: 17% (inactive)

Q: Fill blank: measured growth inhibition of the compound ClCC1CSC2(CCCCC2)O1 (stereo unspecified) is ____.
Result: -9% (inactive)
